Hi there, I'd appreciate the recorded Ki for every entry that follows.
target: D2S (Homo sapiens); experiment: D2S binding (Ki); conditions: NA: Not Active
Sequence (P14416 1-414 isoform P14416-2): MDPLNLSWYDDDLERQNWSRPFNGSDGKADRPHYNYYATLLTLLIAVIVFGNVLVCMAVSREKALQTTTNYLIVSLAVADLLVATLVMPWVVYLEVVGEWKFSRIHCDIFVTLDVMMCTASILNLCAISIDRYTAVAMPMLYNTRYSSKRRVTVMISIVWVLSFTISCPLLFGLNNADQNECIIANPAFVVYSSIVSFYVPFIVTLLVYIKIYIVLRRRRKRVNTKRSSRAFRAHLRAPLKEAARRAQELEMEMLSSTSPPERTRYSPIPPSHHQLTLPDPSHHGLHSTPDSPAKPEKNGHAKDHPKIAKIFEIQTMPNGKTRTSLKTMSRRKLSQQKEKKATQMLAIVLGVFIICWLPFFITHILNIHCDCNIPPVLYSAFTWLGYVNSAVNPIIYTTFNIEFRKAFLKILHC
Counter-ions that a name gives are not always drawn.
Give bare numbers, in nM.

compound | Ki [nM]
Fc1cccc(CN2CCC(Nc3ncnc4sc5c(c34)CCCC5)CC2)c1 | 240
Fc1cccc(CN2CCC(Nc3ncnc4sc(Cl)cc34)CC2)c1.O=C(O)/C=C\C(=O)O | 170
Cc1c(Cl)sc2ncnc(NC3CCN(Cc4cccc(F)c4)CC3)c12.O=C(O)/C=C\C(=O)O | 170

Now for another entry.
Item under review: CC(c1cccc(F)c1)N1CCC(Nc2ncnc3sccc23)CC1 (stereo not shown) [Example B12, dihydrochloride] . Reported Ki? 250

----------
assay: HLM T1/2; details: human, liver microsomes
Where a name gives a salt, the structure may show the parent alone.
Hi there, I'd appreciate the recorded half-life for every entry that follows.
Numbers only, in min.

molecule | recordedNumber
CC(C)Cc1cc2c(N3CCC(NCc4cc(F)cc(F)c4)CC3)ncnc2s1 [Example B29, dihydrochloride] | 18
CN(C)C(=O)c1cccc(CN2CCC(Nc3ncnc4sc(Cl)cc34)CC2)c1 | 24
Cc1c(Cl)sc2ncnc(NC3CCN(Cc4cccc(F)c4)CC3)c12 [Example B37, dihydrochloride] | 11
N#Cc1cc(CN2CCC(Nc3ncnc4sc(Cl)cc34)CC2)ccc1F | 28
N#Cc1ccc(F)c(CN2CCC(Nc3ncnc4sc(Cl)cc34)CC2)c1 | 10
NC(=O)c1cccc(CN2CCC(Nc3ncnc4sc(Cl)cc34)CC2)c1 | 86
Fc1cccc(C(N2CCC(Nc3ncnc4sc5c(c34)CCCC5)CC2)C(F)(F)F)c1 (stereo not shown) [Example B28, dihydrochloride] | 11
CC(C)c1c(Cl)sc2ncnc(NC3CCN(Cc4cccc(F)c4)CC3)c12 | 8
Clc1cc2c(NC3CCN(Cc4cncnc4)CC3)ncnc2s1 | 60

Now for another entry.
Item under review: Clc1cccc(CN2CCC(Nc3ncnc4sc(Cl)cc34)CC2)c1 . Reported half-life? 11

----------
Target protein (sequence): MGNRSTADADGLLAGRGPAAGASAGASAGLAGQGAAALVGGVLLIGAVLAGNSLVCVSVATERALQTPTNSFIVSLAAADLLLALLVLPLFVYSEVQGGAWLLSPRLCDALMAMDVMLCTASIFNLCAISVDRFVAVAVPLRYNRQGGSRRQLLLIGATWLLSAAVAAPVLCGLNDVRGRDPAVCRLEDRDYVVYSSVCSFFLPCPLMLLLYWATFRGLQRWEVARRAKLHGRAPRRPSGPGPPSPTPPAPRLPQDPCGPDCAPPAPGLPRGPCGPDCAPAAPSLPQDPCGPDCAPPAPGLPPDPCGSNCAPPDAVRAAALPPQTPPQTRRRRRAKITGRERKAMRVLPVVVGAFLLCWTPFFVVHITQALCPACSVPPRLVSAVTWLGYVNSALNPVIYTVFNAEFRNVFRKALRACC
quantityKind: pKi
Answers are plain numbers, as −log10 of the molar value.

# example entries with known answers
compound | recordedNumber
Fc1cccc(CN2CCC(Nc3ncnc4sc(Cl)cc34)CC2)c1.O=C(O)/C=C\C(=O)O | 8.33
N#Cc1cccc(CN2CCC(Nc3ncnc4sc(Cl)cc34)CC2)c1 [Example B43, monomaleate] | 7.60

Now for another entry.
Item under review: Fc1cc(F)cc(CN2CCC(Nc3ncnc4sc(Cl)cc34)CC2)c1.O=C(O)/C=C\C(=O)O . Reported pKi? 8.47
